Target: mouse Tas2r144 (Mus musculus)
Construct: expressed in transfected cells; host or cells: HEK293T-Gα16gust44
Sequence (Q7TQB8 whole entry): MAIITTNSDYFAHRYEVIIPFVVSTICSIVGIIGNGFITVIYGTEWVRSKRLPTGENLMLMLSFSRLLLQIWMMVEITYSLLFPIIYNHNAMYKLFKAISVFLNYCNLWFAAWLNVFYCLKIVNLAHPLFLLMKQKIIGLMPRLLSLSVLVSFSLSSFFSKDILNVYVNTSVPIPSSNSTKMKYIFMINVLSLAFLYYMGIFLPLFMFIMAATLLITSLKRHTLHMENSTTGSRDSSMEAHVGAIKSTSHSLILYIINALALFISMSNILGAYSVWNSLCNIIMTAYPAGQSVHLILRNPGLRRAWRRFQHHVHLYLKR
Test: Calcium imaging assay (FLIPR), HEK293T-Gα16gust44 cells transfected with mouse Tas2r144
Type: cell-based
Conditions: Time 110.781 s

| Chem smiles | Unit abbreviation | RLU |
| --- | --- | --- |
| C[C@H](CCC(=O)NCCS(=O)(=O)O)[C@H]1CC[C@H]2[C@@H]3[C@H](O)C[C@@H]4C[C@H](O)CC[C@]4(C)[C@H]3C[C@H](O)[C@]12C | RLU | 463.149 |
| C[C@H](CCC(=O)O)[C@H]1CC[C@H]2[C@@H]3[C@H](O)C[C@@H]4C[C@H](O)CC[C@]4(C)[C@H]3C[C@H](O)[C@]12C | RLU | 458.143 |
| C[C@H](CCC(=O)NCCS(=O)(=O)O)[C@H]1CC[C@H]2[C@@H]3CC[C@@H]4C[C@H](O)CC[C@]4(C)[C@H]3CC[C@]12C | RLU | 380.059 |
| C[C@H](CCC(=O)NCC(=O)O)[C@H]1CC[C@H]2[C@@H]3[C@H](O)C[C@@H]4C[C@H](O)CC[C@]4(C)[C@H]3C[C@H](O)[C@]12C | RLU | 346.013 |

* * *

Biological target: human TAS2R14 (Homo sapiens, UniProt Q9NYV8)
Construct: expressed in transfected cells; host or cells: HEK293T-Gα16gust44
Sequence (Q9NYV8 1-317): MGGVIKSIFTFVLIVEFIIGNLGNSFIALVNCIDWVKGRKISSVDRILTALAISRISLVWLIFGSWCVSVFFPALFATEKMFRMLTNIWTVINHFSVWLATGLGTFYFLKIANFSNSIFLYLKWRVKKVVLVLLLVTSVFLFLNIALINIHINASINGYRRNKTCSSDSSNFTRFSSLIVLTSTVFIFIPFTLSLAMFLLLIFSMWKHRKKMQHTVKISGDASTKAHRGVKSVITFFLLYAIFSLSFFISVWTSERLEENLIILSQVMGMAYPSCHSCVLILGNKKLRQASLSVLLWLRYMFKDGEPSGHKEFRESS
Assay: Calcium imaging assay (FLIPR), HEK293T-Gα16gust44 cells transfected with human TAS2R14
Format: cell-based
Settings: TAS2R14 trace; Time (s) 18.797 (Chenodeoxycholic Acid 18.765)
# key: entry, value: RLU

| Chem smiles | RLU / RLU |
| --- | --- |
| C[C@H](CCC(=O)NCCS(=O)(=O)O)[C@H]1CC[C@H]2[C@@H]3[C@H](O)C[C@@H]4C[C@H](O)CC[C@]4(C)[C@H]3C[C@H](O)[C@]12C | -59.7397 |
| C[C@H](CCC(=O)NCCS(=O)(=O)O)[C@H]1CC[C@H]2[C@@H]3CC[C@@H]4C[C@H](O)CC[C@]4(C)[C@H]3CC[C@]12C | -68.311 |
| C[C@H](CCC(=O)O)[C@H]1CC[C@H]2[C@@H]3[C@H](O)C[C@@H]4C[C@H](O)CC[C@]4(C)[C@H]3CC[C@]12C | 7.956 |
| C[C@H](CCC(=O)NCC(=O)O)[C@H]1CC[C@H]2[C@@H]3[C@H](O)C[C@@H]4C[C@H](O)CC[C@]4(C)[C@H]3C[C@H](O)[C@]12C | -73.9735 |
| C[C@H](CCC(=O)O)[C@H]1CC[C@H]2[C@@H]3[C@H](O)C[C@@H]4C[C@H](O)CC[C@]4(C)[C@H]3C[C@H](O)[C@]12C | -22.7559 |
